Molecular target: Full-length human CRM1 (HsCRM1) (human, UniProt O14980 1-1071)
Sequence (O14980 whole entry): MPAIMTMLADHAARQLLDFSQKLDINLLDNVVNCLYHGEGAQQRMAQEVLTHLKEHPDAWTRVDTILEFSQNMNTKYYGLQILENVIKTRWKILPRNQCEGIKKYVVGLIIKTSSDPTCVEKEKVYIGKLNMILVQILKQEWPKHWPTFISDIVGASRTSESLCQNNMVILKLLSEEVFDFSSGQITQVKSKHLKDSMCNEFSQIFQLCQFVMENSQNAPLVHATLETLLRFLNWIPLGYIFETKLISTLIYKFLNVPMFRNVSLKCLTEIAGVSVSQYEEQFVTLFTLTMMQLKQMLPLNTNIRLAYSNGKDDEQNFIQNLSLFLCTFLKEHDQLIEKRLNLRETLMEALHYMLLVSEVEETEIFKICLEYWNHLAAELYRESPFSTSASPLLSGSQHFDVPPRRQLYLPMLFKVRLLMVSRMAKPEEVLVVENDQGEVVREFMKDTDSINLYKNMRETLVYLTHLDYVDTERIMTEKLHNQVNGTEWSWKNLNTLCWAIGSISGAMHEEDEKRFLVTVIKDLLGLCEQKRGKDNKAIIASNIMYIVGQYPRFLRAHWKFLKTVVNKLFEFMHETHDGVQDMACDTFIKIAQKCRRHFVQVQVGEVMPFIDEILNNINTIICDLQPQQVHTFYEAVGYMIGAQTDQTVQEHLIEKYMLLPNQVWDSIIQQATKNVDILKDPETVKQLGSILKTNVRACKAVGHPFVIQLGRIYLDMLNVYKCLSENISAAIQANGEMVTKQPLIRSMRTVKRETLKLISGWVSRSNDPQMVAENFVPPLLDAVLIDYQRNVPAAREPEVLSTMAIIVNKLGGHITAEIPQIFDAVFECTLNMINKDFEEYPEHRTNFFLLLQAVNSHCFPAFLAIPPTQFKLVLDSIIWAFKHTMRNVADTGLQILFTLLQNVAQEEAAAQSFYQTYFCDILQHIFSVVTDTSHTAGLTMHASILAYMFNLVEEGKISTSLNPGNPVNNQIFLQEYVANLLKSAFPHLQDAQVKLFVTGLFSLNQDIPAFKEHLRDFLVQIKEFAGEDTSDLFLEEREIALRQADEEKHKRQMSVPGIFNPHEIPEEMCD
Test: MST; direct titration, middle panel
Ends that are not written are not given here. * marks the point of attachment. FITC = O=C1OC2(c3ccc(O)cc3Oc3cc(O)ccc32)c2ccc(NC(=S)*)cc21
assayReadout: pKd
Answers are plain numbers, as −log10 of the molar value.

Query :: Which pKd is listed for {FITC}-SGNSNELALKLAGLDINKT [FITC-PKI^NES peptide (FITC-SGNSNELALKLAGLDINKT)] ?
Result :: 7.52
